In this section we review reported Binding affinity values for a set of substances.
target of assay: acetylcholine receptor (Homo sapiens, UniProt P02708)
Sequence (P02708 21-457): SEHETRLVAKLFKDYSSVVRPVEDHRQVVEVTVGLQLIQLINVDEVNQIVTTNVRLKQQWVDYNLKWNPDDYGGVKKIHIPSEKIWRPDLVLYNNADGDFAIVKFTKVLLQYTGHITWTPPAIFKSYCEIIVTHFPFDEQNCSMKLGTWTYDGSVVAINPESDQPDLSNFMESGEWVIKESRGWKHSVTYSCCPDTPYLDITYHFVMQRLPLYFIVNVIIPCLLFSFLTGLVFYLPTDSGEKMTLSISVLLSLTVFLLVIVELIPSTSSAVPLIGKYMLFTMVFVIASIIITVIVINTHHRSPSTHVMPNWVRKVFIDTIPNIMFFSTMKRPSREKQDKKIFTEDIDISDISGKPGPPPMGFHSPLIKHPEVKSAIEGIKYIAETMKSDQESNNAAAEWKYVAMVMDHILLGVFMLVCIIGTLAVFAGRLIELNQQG
method: SPR binding affinity (RU) of optimized 5mer/6mer/7mer peptides, Examples 6-7
assay conditions: SPR, peptides tested at 10 μM; 6mer-1 Top sequence
Procedure: Based on the frequencies of occurrence of the top 7 amino acids from Table 7 in Example 5, 600 peptides comprising these amino acids (top combinations) and those comprising the 13 less frequently occurring amino acids (bottom combinations) were synthesized for each series of 5mer, 6mer-1, and 6mer-2. The binding affinity of each sequence for the acetylcholine receptor was measured using Surface Plasmon Resonance (SPR) analysis method. The peptides were tested at a concentration of 10 μM. […]
parameter measured: Binding affinity

>  <substance>
6mer-1-487 (RKGRRK)

>  <parameter measured>
Binding affinity

>  <test result>
121 Ru

$$$$
>  <substance>
6mer-1-496 (RRVYQR)

>  <parameter measured>
Binding affinity

>  <test result>
148 Ru

$$$$
>  <substance>
6mer-1-512 (RKWICK)

>  <parameter measured>
Binding affinity

>  <test result>
154 Ru

$$$$
>  <substance>
6mer-1-594 (KRQLQR)

>  <parameter measured>
Binding affinity

>  <test result>
121 Ru

$$$$
>  <substance>
6mer-1-423 (RRGYCK)

>  <parameter measured>
Binding affinity

>  <test result>
147 Ru

$$$$
>  <substance>
6mer-1-528 (KRSYTR)

>  <parameter measured>
Binding affinity

>  <test result>
139 Ru

$$$$
>  <substance>
6mer-1-419 (KRGFYR)

>  <parameter measured>
Binding affinity

>  <test result>
148 Ru

$$$$
>  <substance>
6mer-1-548 (RRVYSR)

>  <parameter measured>
Binding affinity

>  <test result>
123 Ru

$$$$
>  <substance>
6mer-1-552 (RKRYRK)

>  <parameter measured>
Binding affinity

>  <test result>
144 Ru

$$$$
>  <substance>
6mer-1-483 (KRQVTK)

>  <parameter measured>
Binding affinity

>  <test result>
151 Ru

$$$$
>  <substance>
6mer-1-439 (KRRQTK)

>  <parameter measured>
Binding affinity

>  <test result>
121 Ru

$$$$
>  <substance>
6mer-1-542 (KRWFRR)

>  <parameter measured>
Binding affinity

>  <test result>
128 Ru

$$$$
>  <substance>
6mer-1-495 (RKGFQR)

>  <parameter measured>
Binding affinity

>  <test result>
126 Ru

$$$$
>  <substance>
6mer-1-452 (KRLYTR)

>  <parameter measured>
Binding affinity

>  <test result>
141 Ru

$$$$
>  <substance>
6mer-1-520 (KRQIYK)

>  <parameter measured>
Binding affinity

>  <test result>
127 Ru

$$$$
>  <substance>
6mer-1-493 (KRGYLR)

>  <parameter measured>
Binding affinity

>  <test result>
131 Ru

$$$$
>  <substance>
6mer-1-588 (RRLVRK)

>  <parameter measured>
Binding affinity

>  <test result>
153 Ru

$$$$
>  <substance>
6mer-1-530 (KRLVSK)

>  <parameter measured>
Binding affinity

>  <test result>
137 Ru

$$$$
>  <substance>
6mer-1-461 (RRGYTR)

>  <parameter measured>
Binding affinity

>  <test result>
142 Ru

$$$$
>  <substance>
6mer-1-462 (RKQILK)

>  <parameter measured>
Binding affinity

>  <test result>
126 Ru

$$$$
>  <substance>
6mer-1-504 (RRSITR)

>  <parameter measured>
Binding affinity

>  <test result>
122 Ru

$$$$
>  <substance>
6mer-1-438 (RRGFQK)

>  <parameter measured>
Binding affinity

>  <test result>
142 Ru

$$$$
>  <substance>
6mer-1-599 (KKLYQR)

>  <parameter measured>
Binding affinity

>  <test result>
124 Ru

$$$$
>  <substance>
6mer-1-515 (RRGLSR)

>  <parameter measured>
Binding affinity

>  <test result>
139 Ru

$$$$
>  <substance>
6mer-1-414 (KRSFLR)

>  <parameter measured>
Binding affinity

>  <test result>
153 Ru

$$$$
>  <substance>
6mer-1-551 (KRGRLR)

>  <parameter measured>
Binding affinity

>  <test result>
142 Ru

$$$$
>  <substance>
6mer-1-416 (RKLIYR)

>  <parameter measured>
Binding affinity

>  <test result>
153 Ru

$$$$
